- Test system: A549
- assay_summary: NCI tumour cell line growth inhibition, 48 h
Calls of active or inactive are those of the source. Cut-off read from the data, not from the text of the source: active = GI50 up to about 1.1 µM and inactive = higher.
Outcome (select one): T for active, F for inactive

Incoming: # outcome recorded in this test, key = Cc1cc(C)n(C2OC(CO)C(O)C(O)C2O)c(=S)c1C#N (stereo not given)
Outgoing: F

Incoming: # outcome recorded in this test, key = C(=N\OCc1ccccc1)/c1ncccc1C1OCCO1
Outgoing: F

Incoming: # outcome recorded in this test, key = N#CC(OC1OC(COC2OC(CO)C(O)C(O)C2O)C(O)C(O)C1O)c1ccccc1 (stereo not given)
Outgoing: F

Incoming: # outcome recorded in this test, key = CCC12C=CCN3CC[C@]4(C(=C(C(=O)OC)[C@@H]1Nc1ncnc5c1ncn5C1OC(COC(C)=O)C(OC(C)=O)C1OC(C)=O)Nc1ccccc14)C32 (stereo not given in full)
Outgoing: F

Incoming: # outcome recorded in this test, key = Fc1ccc(Nc2nc(Cl)c3nc[nH]c3n2)cc1Cl
Outgoing: F

Incoming: # outcome recorded in this test, key = Cn1ncc(NCCn2cnc3c2c(=O)n(C)c(=O)n3C)c(Cl)c1=O
Outgoing: F

Incoming: # outcome recorded in this test, key = CC(=O)OCCOCNC(=S)N/N=C/c1ccc2ccccc2n1
Outgoing: F

Incoming: # outcome recorded in this test, key = CS(=O)(=O)CCC(N)P(=O)(O)O (stereo not given)
Outgoing: F

Incoming: # outcome recorded in this test, key = CO[C@@H]1C[C@H](OC(N)=O)[C@@H]2C=C[C@@H]3/C=C(C)/C=C/[C@@H](C)[C@H](/C(C)=C/[C@@H](C)NC(C)=O)OC(=O)/C=C/C=C(C)\C=C\[C@]3(C)[C@@H]2C1 [SUPERSTOLIDE B]
Outgoing: T

Incoming: # outcome recorded in this test, key = CCOP(=O)(OCC)/C(C#N)=C/c1cccn1C
Outgoing: F

###

- System: HCC 2998
- assay_summary: NCI tumour cell line growth inhibition, 48 h
Counter-ions that a name gives are not always drawn. Active and inactive are the calls of the source. No stated cut-off is given here; in the data, active = GI50 up to about 1.1 µM and inactive = higher.
Outcome (select one): Y for active, N for inactive

Recorded results for 9 compounds are shown here.
compound	class_label
Cc1cc(Cl)ccc1NC(=O)/C(CC(=O)CC(c1ccccc1)c1c(O)c2ccccc2oc1=O)=N\O (stereo not given)	N
O=C1CC2(CCNCC2)C(=O)N1N1CCCCC1	N
CC1SC(=O)SC1C (stereo not given)	N
Cc1cc(S(=O)(=O)Nc2nnc3c(Cl)cc(C(F)(F)F)cn23)c(S)cc1Cl	N
Cc1c(Cl)cccc1NC(=O)CC1C(=O)Nc2ccccc2S1(=O)=O (stereo not given)	N
CCCC(=O)N1CCN(c2ccc3c(c2)OC(C)O3)CC1 (stereo not given)	N
CN(C)CCOC(=O)COc1ccc(Cl)cc1 [CENTROPHENOXINE HYDROCHLORIDE]	N
CC(C)C(O)(C(=O)OCN1C(=O)C2C3C=CC(C2C1=O)C1C2C(=O)N(COC(=O)C(O)(C(C)C)C(C)O)C(=O)C2C31)C(C)O (stereo not given)	N
Cc1[nH]n(-c2nc(-c3ccccc3)cc(=O)[nH]2)c(=O)c1CCO	N

Incoming: # outcome recorded in this test, key = COc1cc2c(c(OC)c1OC)-c1ccc(SC)c(=O)cc1[C@@H](NC(=O)c1ccc(C#N)cc1)CC2
Outgoing: Y

###

- System: MDA-MB-435
- assay_summary: NCI tumour cell line growth inhibition, 48 h
Calls of active or inactive are those of the source. Rule as the data show it: active = GI50 up to about 1.1 µM and inactive = higher.
GI50 values by entry

compound	GI50
CC(C)(C)OC(=O)NCCC(N)=S	> 100 µM (inactive)
O=C1CC(C(O)CO)CC(=O)N1 (stereo unspecified)	> 100 µM (inactive)
Oc1c(CN2CCOCC2)ccc(CN2CCOCC2)c1O	81.7 µM (inactive)

Incoming: // query GI50 value for entry CC(=O)NC1=CC(=O)C=C(Cl)C1=O
Outgoing: 17.9 µM (inactive)

Incoming: // query GI50 value for entry Nc1nc(=O)c(/N=N/c2ccc([As](=O)(O)O)cc2)c(N)[nH]1
Outgoing: > 100 µM (inactive)

Incoming: // query GI50 value for entry CC(C)(C)c1ccc(O)c(CN(Cc2cc(C(C)(C)C)ccc2O)c2ccccc2)c1
Outgoing: 16.2 µM (inactive)

Incoming: // query GI50 value for entry O=C(O)CO[C@@]12C#C/C=C\C#C[C@@H]3N(C(=O)Oc4ccccc4)c4ccccc4[C@]14O[C@@]34CCC2
Outgoing: 1.53 µM (inactive)

Incoming: // query GI50 value for entry Nc1nc(SCC(=O)O)nc(O)c1N
Outgoing: 32.3 µM (inactive)

Incoming: // query GI50 value for entry COc1ccc(Cc2nc3cc(Cl)ccc3o2)cc1
Outgoing: 22.1 µM (inactive)

Incoming: // query GI50 value for entry CCN(CC)CCCNc1n[n+]([O-])c2ccccc2[n+]1[O-]
Outgoing: 38.4 µM (inactive)

Incoming: // query GI50 value for entry CCCCCCCCCCCCOCCCCCCCCC/C=C/c1ccc2c(c1)OCCOCCOCCOCCO2
Outgoing: 18.3 µM (inactive)

###

- System: MCF7
- assay_summary: NCI tumour cell line growth inhibition, 48 h
Counter-ions that a name gives are not always drawn. Activity calls are given as the source filed them. No stated cut-off is given here; in the data, active = GI50 up to about 1.1 µM and inactive = higher.
property_measured: GI50

Worked examples follow.
compound	assay_result
COc1ccc2c(c1)c1c(n2CCN2CCOCC2)-c2ccccc2CC1	30.8 µM (inactive)
CCOC(=O)C(=[N+]=[N-])C(=O)Nc1nn2nnnc2c2ccccc12	> 100 µM (inactive)
CC1CN=C(Nc2ccccc2)S1 (stereo not given)	> 100 µM (inactive)
CCCC(=O)N1CCN(c2ccc3c(c2)OC(C)O3)CC1 (stereo not given)	> 100 µM (inactive)
CN(C)CCOC(=O)COc1ccc(Cl)cc1 [CENTROPHENOXINE HYDROCHLORIDE]	38.8 µM (inactive)
CC[C@H](CO)Nc1nc(NCc2ccccc2)c2ncn(C(C)C)c2n1	13.5 µM (inactive)
O=c1oc2ccc(Cl)cc2cc1-c1cn2cc(Cl)ccc2n1	1.64 µM (inactive)
Cc1nc(C(N)=S)sc1C(=O)C/C(=N/N)C(=O)Nc1cccc(Cl)c1C	> 100 µM (inactive)
O=C(Nc1nc(C23CC4CC(CC(C4)C2)C3)cs1)c1cc2cc([N+](=O)[O-])ccc2oc1=O	56.8 µM (inactive)

Now take the following compound into account.
Incoming: Notebook: pull reported GI50 for MCF7, entry CC1(C)CC(=O)c2c(nc3ccc4ccccc4c3c2-c2ccc(NC(=O)CCCC(=O)Nc3ccc(-c4c5c(nc6ccc7ccccc7c46)CC(C)(C)CC5=O)cc3)cc2)C1
Outgoing: > 100 µM (inactive)

###

- Test system: COLO 205
- assay_summary: NCI tumour cell line growth inhibition, 48 h
Activity calls are given as the source filed them. Rule as the data show it: active = GI50 up to about 1.1 µM and inactive = higher.
Outcome (select one): t for active, f for inactive

compound	class_label
O[C@]12C=C(c3nccc4c3[nH]c3ccccc34)[C@@H]3CCN(CCCC/C=C\CC1)C[C@@]31CC3/C=C\CCCCN3[C@H]12 (some centres undefined)	t

Incoming: # outcome recorded in this test, key = CCN(CC)CCC(=O)NC1c2ccc(Cl)cc2Oc2c(C)cccc21 (centres undefined)
Outgoing: f

Incoming: # outcome recorded in this test, key = O=C(O)CO[C@@]12C#C/C=C\C#C[C@@H]3N(C(=O)Oc4ccccc4)c4ccccc4[C@]14O[C@@]34CCC2
Outgoing: f

Incoming: # outcome recorded in this test, key = CC(=O)N(CN1C(=O)CCC1C(=O)O)c1ccccc1Cl (centres undefined)
Outgoing: f

Incoming: # outcome recorded in this test, key = COC(=O)[C@H]1C=NN[C@@H]1C(=O)N1[C@H]2CC3CC[C@@]2(CS1(=O)=O)C3(C)C
Outgoing: f

Incoming: # outcome recorded in this test, key = CCN(CC)CCCNc1n[n+]([O-])c2ccccc2[n+]1[O-]
Outgoing: f

Incoming: # outcome recorded in this test, key = COc1c(C2(c3ccc(F)cc3)SCCCS2)c(=O)c1=O
Outgoing: f

Incoming: # outcome recorded in this test, key = COc1ccc2c(O)c1-c1c(OC)ccc(c1O)SSc1ccc(OC)c(c1O)-c1c(OC)ccc(c1O)SS2
Outgoing: f

Incoming: # outcome recorded in this test, key = Oc1c(CN2CCOCC2)ccc(CN2CCOCC2)c1O
Outgoing: f

###

- Test system: OVCAR-4
- assay_summary: NCI tumour cell line growth inhibition, 48 h
The source made the active and inactive calls. Rule as the data show it: active = GI50 up to about 1.1 µM and inactive = higher.
Outcome (select one): T (active), F (inactive)

Incoming: # outcome recorded in this test, key = O=C(CSSCC(=O)Nc1ccc(Br)cc1)Nc1ccc(Br)cc1
Outgoing: F

###

- Test system: ACHN
- assay_summary: NCI tumour cell line growth inhibition, 48 h
Active and inactive are the calls of the source. Cut-off read from the data, not from the text of the source: active = GI50 up to about 1.1 µM and inactive = higher.
Outcome (select one): active, inactive

compound	class_label
COC(=O)c1ccc(/N=N/N(C)CO)cc1	inactive
COc1ccc(NC(=O)C2C(=O)N(c3ccc(OC)cc3)C(=O)/C2=N\N)cc1 (stereo unspecified)	inactive
COc1cc(OC)c2c(c1)C(=O)C(CC1(C)OCCCO1)=CC2=O	inactive

Incoming: # outcome recorded in this test, key = CC1(C)S[C@@H]2[C@H](NC(=O)C3(N)CCCCC3)C(=O)N2[C@H]1C(=O)O [CYCLACILLIN]
Outgoing: inactive

Incoming: # outcome recorded in this test, key = Oc1ccc(/C=N/N=c2\[nH][nH]/c(=N\N=C\c3ccc(O)cc3O)c3ccccc23)c(O)c1
Outgoing: active

Incoming: # outcome recorded in this test, key = O=C1CC(C(O)CO)CC(=O)N1 (stereo unspecified)
Outgoing: inactive

Incoming: # outcome recorded in this test, key = O=C1ON=C2C3CC4CC12CC1(C3)C(=O)ON=C41
Outgoing: inactive

Incoming: # outcome recorded in this test, key = COC(=O)[C@]1(c2cc3ccccc3[nH]2)CC2CN(CC(=O)N(C)OC)C1C1OC(C)(C)OC21 (stereo partly specified)
Outgoing: inactive

Incoming: # outcome recorded in this test, key = COc1ccc(C2N(c3ccc(F)cc3)C(=O)N3C(c4ccc(OC)cc4)N(c4ccc(F)cc4)C(=O)N23)cc1 (stereo unspecified)
Outgoing: inactive

Incoming: # outcome recorded in this test, key = CCC(=O)/C=C/c1ccccc1
Outgoing: inactive

Incoming: # outcome recorded in this test, key = CC(C)CCC[C@@H](C)[C@H]1CC[C@H]2[C@@H]3CC=C4CC(OCCCCN(O)CCCSC5OC(CO)C(O)C(O)C5O)CC[C@]4(C)[C@H]3CC[C@]12C (stereo partly specified)
Outgoing: inactive
